Tested on: BDF1 mice, B16 melanoma ip, median survival T/C
ASSAY PROTOCOL: NCI In Vivo Anticancer Drug Screen. Data for tumor model B16 Melanoma (intraperitoneal) in B6D2F1 (BDF1) mice
CONDITION SUMMARY: endpoint: median survival time; dose: 100.0 mg/kg/injection; schedule: Q01DX009 (ip); vehicle: Klucel (hydroxypropylcellulose) (HPC); higher = longer survival
Inconclusive results and toxic doses are left out. Peptide text beside a SMILES is read from it.
T/C reference

COMPOUND	ASSAY TARGET	T/C
O=C(CC(CC(=O)c1ccccc1)c1ccco1)c1ccccc1	BDF1 mice, B16 melanoma ip, median survival T/C	93 % of control
C=C1C(=O)OC2C=C(C)C3C(O)CC(C)(O)C3CC12 (configuration not stated)	BDF1 mice, B16 melanoma ip, median survival T/C	88 % of control
CCCCCCCNC(=O)Nc1cccc(Cl)c1C	BDF1 mice, B16 melanoma ip, median survival T/C	90 % of control
C(=Nc1ccc2c(c1)Cc1ccccc1-2)c1ccnc2ccccc12	BDF1 mice, B16 melanoma ip, median survival T/C	103 % of control
CCOc1ccccc1NC(=O)Nc1ccc(Cl)cc1	BDF1 mice, B16 melanoma ip, median survival T/C	110 % of control
Cc1ccc(NC(=O)c2cccc(C(=O)Nc3ccc(C)c(Cl)c3)c2)cc1Cl	BDF1 mice, B16 melanoma ip, median survival T/C	97 % of control
COc1ccc(NC(=O)Oc2cc(C)cc(C)c2)cc1	BDF1 mice, B16 melanoma ip, median survival T/C	96 % of control
CC(C)CC(N)C(=O)NCC(=O)NC(Cc1ccccc1)C(=O)O (stereo not drawn) (H-Leu-Gly-Phe-OH; configuration not given here)	BDF1 mice, B16 melanoma ip, median survival T/C	93 % of control
c1ccc(Oc2ccccn2)cc1	BDF1 mice, B16 melanoma ip, median survival T/C	117 % of control
ClC1OC(Cl)(Cl)C(Cl)(Cl)OC1(Cl)Cl (configuration not stated)	BDF1 mice, B16 melanoma ip, median survival T/C	93 % of control
CCCCCCCCCCCCNC(=O)Nc1ccc(CC)cc1	BDF1 mice, B16 melanoma ip, median survival T/C	92 % of control
CC(=O)CC(=O)Nc1cccc(C)c1	BDF1 mice, B16 melanoma ip, median survival T/C	105 % of control

---

System: BDF1 mice, B16 melanoma ip, median survival T/C
ASSAY PROTOCOL: NCI In Vivo Anticancer Drug Screen. Data for tumor model B16 Melanoma (intraperitoneal) in B6D2F1 (BDF1) mice
CONDITION SUMMARY: endpoint: median survival time; dose: 1.5 mg/kg/injection; schedule: Q01DX009 (ip); vehicle: saline with Tween-80
Toxic doses and inconclusive results are not listed. Rule for the calls: active = survival T/C of 150% or more; inactive = T/C below 125% in these data.
Labels: TRUE = active, FALSE = inactive

COMPOUND STRUCTURE	ASSAY TARGET	LABEL VALUE
COc1ccc([I+]c2ccccc2)cc1	BDF1 mice, B16 melanoma ip, median survival T/C	FALSE
O=C(NCCN1CC1)C(=O)NCCN1CC1	BDF1 mice, B16 melanoma ip, median survival T/C	TRUE
CC(=O)Nc1c(Cl)c(Cl)c2c(c1Cl)Cc1cc(Br)ccc1-2	BDF1 mice, B16 melanoma ip, median survival T/C	FALSE
Cc1cc(C)[c]([Hg][Cl])c(C)c1	BDF1 mice, B16 melanoma ip, median survival T/C	FALSE
CC[N+](CC)(CC)CC	BDF1 mice, B16 melanoma ip, median survival T/C	FALSE
